# Test system: NOMO1
# PROTOCOL SUMMARY: cell viability relative to DMSO control; higher = less cytotoxic
# CONDITION CONTEXT: RPMI 5 mM glucose + 10% dialyzed FBS; 48 h; 0.569 µM
METRIC: cell viability (%)
Reply with just the number (in %).

Example results:
# MOLECULE, cell viability, %
data = [
    ("N#Cc1ccc(NC(=O)Nc2ccccc2Br)c2nn[nH]c12", 123),
    ("CS[C@H]1SC[C@@H]2C(=O)N(C)[C@H](C(C)C)C(=O)OC[C@H](NC(=O)c3cnc4ccccc4n3)C(=O)N[C@H](C)C(=O)N(C)[C@H]1C(=O)N(C)[C@H](C(C)C)C(=O)OC[C@H](NC(=O)c1cnc3ccccc3n1)C(=O)N[C@H](C)C(=O)N2C", 5.79),
]

Can you look up cell viability on NOMO1 for CC(C)CC(N(C)C)C1(c2ccc(Cl)cc2)CCC1 (configuration not stated) ?
120

Can you look up cell viability on NOMO1 for CN(C)CCc1c[nH]c2ccc(C[S+](=O)([O-])N3CCCC3)cc12 ?
115

----------
# Tested on: NOMO1
# PROTOCOL SUMMARY: cell viability relative to DMSO control; higher = less cytotoxic
# CONDITION CONTEXT: RPMI 5 mM glucose + 10% dialyzed FBS; 48 h; 0.0632 µM
A collection of molecules and their measured cell viability
Reply with just the number (in %).

# SMILES ENTRY, TARGET DESC, METRIC, READOUT UNIT, RECORDED MEASUREMENT
rows = [
    ("CC(C)n1cnc2c(NCCc3ccc(O)cc3)nc(-c3csc4ccccc34)nc21", "NOMO1", "cell viability", "%", 124),
    ("N#Cc1ccnc(N2C(=O)CC[C@H]2C(=O)N(c2cncc(F)c2)[C@H](C(=O)NC2CC(F)(F)C2)c2ccccc2Cl)c1", "NOMO1", "cell viability", "%", 97.6),
    ("N=C(N)NC(=N)N1CCOCC1", "NOMO1", "cell viability", "%", 106),
]

We now examine a further molecule.
Name the recorded cell viability for C[N]1N=CC=C1C/2=C(\C)N(C(=O)C(=C2)/C(=O)NCC3=NC=C(C=C3)[S+](C)([O-])=O)C4=CC=CC(=C4)C(F)(F)F .
111

----------
# Tested on: SEM cells
# PROTOCOL SUMMARY: cell viability relative to DMSO control; higher = less cytotoxic
# CONDITION CONTEXT: HPLM + 10% dialyzed FBS; 48 h; 0.0211 µM
A collection of compounds and their measured cell viability
Reply with just the number (in %).

Can you look up cell viability on SEM cells for CC(C)(C)OC(=O)Nc1ccc(-c2cc(C(=O)NCCCCCCC(=O)NO)no2)cc1 ?
102

Can you look up cell viability on SEM cells for Cc1cccc(-c2[nH]c(C(C)(C)C)nc2-c2ccc3c(c2)OCO3)n1 ?
105

Can you look up cell viability on SEM cells for C[N+]1(C)[C@@H]2CC(OC(=O)C(O)(c3cccs3)c3cccs3)C[C@H]1[C@@H]1O[C@@H]12 (stereo not given in full) ?
102

----------
# Test system: P12-Ichikawa
# PROTOCOL SUMMARY: cell viability relative to DMSO control; higher = less cytotoxic
# CONDITION CONTEXT: RPMI 5 mM glucose + 10% dialyzed FBS; 48 h; 46.1 µM
Criterion: cell viability strictly under 90%. Met: Y. Not met: N.

Use the examples below as a reference point.
# SMILES ENTRY, TARGET DESC, ANSWER LABEL
records = [
    ("O=C(NCC1CCOCC1)c1cnc(Nc2ccc(Cl)cc2Cl)nc1C(F)(F)F", "P12-Ichikawa", "N"),
    ("CCOC(=O)[C@H]1O[C@@H]1C(=O)N[C@@H](CC(C)C)C(=O)NCCC(C)C", "P12-Ichikawa", "N"),
    ("O=[S+]([O-])(NCCNC/C=C/c1ccc(Br)cc1)c1cccc2cnccc12", "P12-Ichikawa", "Y"),
]

Now let's try a different one.
Check if cell viability falls below 90% for CCCCc1nc2cc(/C=C/C(=O)NO)ccc2n1CCN(CC)CC .
Y

----------
A collection of compounds and their measured cell viability
# System: NOMO1
# PROTOCOL SUMMARY: cell viability relative to DMSO control; higher = less cytotoxic
# CONDITION CONTEXT: RPMI 5 mM glucose + 10% dialyzed FBS; 48 h; 15.4 µM
Reply with just the number (in %).

Example results:
# COMPOUND, cell viability / %
records = [
    ("Cc1ccc(-c2cc(C(F)(F)F)nn2-c2ccc([S+](N)(=O)[O-])cc2)cc1", 109),
    ("NC(CO)C(=O)NNCc1ccc(O)c(O)c1O (stereo not drawn)", 92.7),
    ("C[C@H](NCc1ccc(OCc2cccc(F)c2)cc1)C(N)=O", 97.4),
]

Name the recorded cell viability for O=C1N\C=N/C2=C1C=N[NH]2 .
81.2

Name the recorded cell viability for COc1ccc(C2(C#N)CCC(C(=O)O)CC2)cc1OC1CCCC1 (stereo not drawn) .
100

Name the recorded cell viability for COC(=O)C/1=C(C)/N/C(=C(\C1C2=CC(=CC=C2)[N+]([O-])=O)C(=O)OCCCN3CCC(CC3)(C4=CC=CC=C4)C5=CC=CC=C5)C (stereo not drawn) .
90.5

Name the recorded cell viability for O=C(NCc1ccccc1)c1csc(Nc2ccncn2)n1 .
4.75

Name the recorded cell viability for Cc1ccc(/C=N/NC(=O)c2ccccc2Oc2ccccc2)o1 .
96.9

Name the recorded cell viability for N#Cc1ccc(NC(=O)Nc2ccccc2Br)c2nn[nH]c12 .
101

Name the recorded cell viability for O=[S+]([O-])(NCCNC/C=C/c1ccc(Br)cc1)c1cccc2cnccc12 .
74.3

Name the recorded cell viability for CN1CCN(CCCN2c3ccccc3Sc3ccc(Cl)cc32)CC1.O=C(O)/C=C\C(=O)O.O=C(O)/C=C\C(=O)O .
28.3

Name the recorded cell viability for C=CC(=O)Nc1ccc2ncnc(Nc3ccc(OCc4cccc(F)c4)c(Cl)c3)c2c1 .
18.3

Name the recorded cell viability for CN(C)CCc1c[nH]c2ccc(C[S+](=O)([O-])N3CCCC3)cc12 .
92

----------
A collection of compounds and their measured cell viability
# Test system: P12-Ichikawa
# PROTOCOL SUMMARY: cell viability relative to DMSO control; higher = less cytotoxic
# CONDITION CONTEXT: RPMI 5 mM glucose + 10% dialyzed FBS; 48 h; 46.1 µM
Reply with just the number (in %).

# COMPOUND, TARGET DESC, cell viability / %
data = [
    ("O=C(NCc1ccccc1)c1csc(Nc2ccncn2)n1", "P12-Ichikawa", 2.78),
]

Name the recorded cell viability for CCC(C1CCC(C)C(O1)C(C)C(O)C(C)C(=O)C(CC)C2OC\3(O[C@]4(CC[C@@](C)(O4)C5CC[C@@](O)(CC)C(C)O5)C(O)\C=C3)C(C)CC2C)C([O-])=O (some centres not stated) .
41.1

Name the recorded cell viability for COc1cc2ncnc(Nc3cccc(Cl)c3)c2cc1OC .
15.7

Name the recorded cell viability for COC(=O)Nc1nc2ccc([S+]([O-])c3ccccc3)cc2[nH]1 (configuration not stated) .
97.4

Name the recorded cell viability for O=C1CCCC(=O)C1C(=O)c1ccc(C(F)(F)F)cc1[N+](=O)[O-] .
99.5

Name the recorded cell viability for CC(C)(O)C(=O)Nc1ccc([N+](=O)[O-])c(C(F)(F)F)c1 .
18.1

Name the recorded cell viability for N#CC[C@H](C1CCCC1)n1cc(-c2ncnc3[nH]ccc23)cn1 .
23.3

Name the recorded cell viability for COc1ccc([S+](=O)([O-])Nc2cccnc2Nc2ccc(O)cc2)cc1 .
24

Name the recorded cell viability for C[N]1C=C(C=N1)C2=CC=C3N=CC\4=C(N(C(=O)\C=C4)C5=CC6=C(CCN6C(=O)C=C)C=C5)C3=C2 .
4.97

Name the recorded cell viability for CC(C)(C)OC(=O)Nc1ccc(-c2cc(C(=O)NCCCCCCC(=O)NO)no2)cc1 .
3.52

Name the recorded cell viability for CC[C@@H]1C(=O)N(C)c2cnc(Nc3ccc(C(=O)NC4CCN(C)CC4)cc3OC)nc2N1C1CCCC1 .
4.69

----------
# System: SEM cells
# PROTOCOL SUMMARY: cell viability relative to DMSO control; higher = less cytotoxic
# CONDITION CONTEXT: RPMI 5 mM glucose + 10% FBS; 48 h; 0.00234 µM
METRIC: cell viability (%)
Reply with just the number (in %).

Example results:
# COMPOUND, TARGET DESC, METRIC, RECORDED MEASUREMENT
records = [
    ("CC[C@H]1CN2CCc3cc(OC)c(OC)cc3[C@@H]2C[C@@H]1C[C@H]1NCCc2cc(OC)c(OC)cc21", "SEM cells", "cell viability", 94.3),
    ("COc1ccc2[nH]cc(CCNC(C)=O)c2c1", "SEM cells", "cell viability", 123),
    ("N#Cc1ccc(NC(=O)Nc2ccccc2Br)c2nn[nH]c12", "SEM cells", "cell viability", 111),
    ("CCCCCN(CCC12CC3CC(CC(C3)C1)C2)C(=O)NCCCc1ccncc1", "SEM cells", "cell viability", 92.9),
    ("NC[C@H]1O[C@H](O[C@H]2[C@H](O)[C@@H](O[C@H]3O[C@H](CO)[C@@H](O)[C@H](N)[C@H]3O)[C@H](N)C[C@@H]2N)[C@H](N)C[C@@H]1O", "SEM cells", "cell viability", 97.1),
    ("NCCc1ccc(O)c(O)c1", "SEM cells", "cell viability", 136),
    ("CC(C)CC(N(C)C)C1(c2ccc(Cl)cc2)CCC1 (centres undefined)", "SEM cells", "cell viability", 127),
    ("C[C@H](NCc1ccc(OCc2cccc(F)c2)cc1)C(N)=O", "SEM cells", "cell viability", 99.9),
    ("CC(C)(C)C1=CC(=C(NC(=O)C/2=C/NC3=C(C=CC=C3)C2=O)C=C1O)C(C)(C)C", "SEM cells", "cell viability", 108),
    ("OC[C@H]1OC(OC2=CC3=C(C(=C2)O)C(=O)\\C(=C/O3)C4=CC=C(O)C=C4)[C@H](O)[C@@H](O)[C@@H]1O (some centres undefined)", "SEM cells", "cell viability", 86.8),
]

Name the recorded cell viability for C[N]1C=C(C=N1)C2=CC=C3N=CC\4=C(N(C(=O)\C=C4)C5=CC6=C(CCN6C(=O)C=C)C=C5)C3=C2 .
105

Name the recorded cell viability for Cc1c(C(=O)c2cccc3ccccc23)c2cccc3c2n1[C@H](CN1CCOCC1)CO3 .
74.4

Name the recorded cell viability for Cc1cccc2c1CC[C@H](CN1CCC(c3c(Cl)cccc3Cl)CC1)C[C@@H]2O .
138

Name the recorded cell viability for COc1cc(OC)c(C(=O)CCCN2CCCC2)c(OC)c1 .
143

Name the recorded cell viability for COc1ccc(C2(C#N)CCC(C(=O)O)CC2)cc1OC1CCCC1 (centres undefined) .
85.3

Values compiled from the supplement of paper PMC11451515.
